Catalogue of compounds with associated cytotoxicity at 70.5 h
- test description: Human HepG2 cell viability assay in 384 well format
- Type: toxicity, cell-based
- Parameters: dose 125 nL, time 70.5 hour; concentration not given beside the values
- condition set: HepG2 cells, read-out: Inhibition
# number only, unit % dropped from output

The following compounds have reported results that may help.
{"columns": ["compound", "measurement name", "quantitative readout"],
 "data": [
  ["O=C(CS(=O)(=O)Cc1nnnn1C1CC1)NCC1CC1", "cytotoxicity at 70.5 h", -4.04],
  ["Cc1cc(CN2CCN(C(=O)NC(C)Cn3ccnc3)CC2)on1 (configuration not stated)", "cytotoxicity at 70.5 h", 29.6],
  ["CCc1nc(C2CCCN(C(=O)c3ccc4[nH]cnc4c3)C2)no1 (configuration not stated)", "cytotoxicity at 70.5 h", 12.5],
  ["COc1cccc(CNC(=O)CC2CSc3nc(C)c(C)c(=O)n32)c1 (configuration not stated)", "cytotoxicity at 70.5 h", -2.74],
  ["O=C(NCCCO)c1cc(-c2ccc3c(c2)CCO3)n[nH]1", "cytotoxicity at 70.5 h", 14.5]
]}

Fill blank: measured cytotoxicity at 70.5 h of the compound COc1ncc(-c2ccc(O)cc2)c(OC)n1 is ____.
-6.77

Follow-up entry: c1cnc(-c2noc(C3CN(Cc4ccc5c(c4)CCO5)C3)n2)cn1
-9.18

Similarly, CCc1cc(N[C@H](C(N)=O)[C@@H](C)CC)n2nccc2n1 ?
-1.65

And CSCc1nc(CNC(=O)c2cnn(C(C)C)c2)cs1 ?
-11.2

Request: COC(=O)NCCCn1ccnc1-c1ccccc1
-6.73

What do you have for Nc1cc(N2CCCC(COc3ccc(F)cc3)C2)ncn1 (configuration not stated) ?
-12.7

Further, for O=C(c1cscn1)N1CCC2(CCN(Cc3nccs3)C2)CC1 ?
-12.2
